assay: Systemic exposure and pharmacokinetics after single oral gavage dose of 200 mg/kg in fasted male SD rats; format: in vivo, Sprague Dawley (SD) rats; conditions: male, Sprague-Dawley, rat, plasma, po, 30 h post dose, male SD rats, PO 200 mg/kg, read-out: Plasma level at 30 hours post-dose
Quantity kind: concentration at 30 h (ng/mL)
API: value field is a number in ng/mL; no unit string.

For the compound shown here, CCc1cnc(N2CCC(c3nc(COc4ccc(-n5cnnn5)cc4)cs3)CC2)nc1.Cl [HCl Salt Form I] , give the reported concentration at 30 h.
7.52

* * *

assay: Systemic exposure and pharmacokinetics after single oral gavage dose of 200 mg/kg in fasted male SD rats; assay type: in vivo, Sprague Dawley (SD) rats; conditions: male, Sprague-Dawley, rat, plasma, po, fasted male SD rats, single PO dose 200 mg/kg, mean ± SD
Quantity kind: half-life (h)
API: value field is a number in h; no unit string.

| Molecule | half-life [h] |
| --- | --- |
| CCc1cnc(N2CCC(c3nc(COc4ccc(-n5cnnn5)cc4)cs3)CC2)nc1 | 3.53 |

Would you kindly look at the next entry?
For the molecule shown here, CCc1cnc(N2CCC(c3nc(COc4ccc(-n5cnnn5)cc4)cs3)CC2)nc1.Cl [HCl Salt Form I] , give the reported half-life.
4.01

Entry source: patent US9150567B2
